relative binding ratio by entry:
Measurement Target: HLA-A*2401 (human)
Protocol Description: inhibition of 125I probe peptide binding to purified HLA; IC50 standard/IC50 test
Measured Attribute: relative binding ratio

• SYMPIWKF [HER2/neu 609-616] = 0.32
• EYLVPQQGFF [HER2/neu 1022-1031] = 0.012
• LMPYGCLL [HER2/neu 800-807] = 0.0076
• GMGAAKGLQSL [HER2/neu 1091-1101] = -0.0003
